# Test system: P94_40
# Assay overview: qHTS profiling for inhibitors of Plasmodium falciparum proliferation (AID 504749); note: nearly all actives have a fitted effect of over 60% in size
# Measurement conditions: P. falciparum in erythrocytes, SYBR Green DNA, 72 h; series mostly up to 28.7 µM
Records with an inconclusive call do not appear. Activity calls are given as the source filed them. Calls come from the whole dose curve; as a rule, active = well fitted inhibition curve with a large enough effect; inconclusive = small, poorly fitted or top-dose-only effect; inactive = flat fitted curve, though single readings scatter.
Entry note: the call must match one of True (active), False (inactive)

For orientation, consider the following solved cases.
C=C1CCC2[C@](C)(CO)C(O)CC[C@]2(C)C1C/C=C1/C(=O)OCC1O (stereo partly specified) = False
COc1ccc(CCNC[C@@H](O)c2ccc(O)cc2)cc1OC = False
C=C1/C(=C\C=C2/CCC[C@]3(C)[C@@H]([C@H](C)CCCC(C)(C)O)CC[C@@H]23)C[C@@H](O)C[C@@H]1O = False
CC(C)C[C@H]1C(=O)N2CCCC2[C@]2(O)O[C@](NC(=O)[C@@H]3C=C4c5cccc6[nH]c(Br)c(c56)C[C@H]4N(C)C3)(C(C)C)C(=O)N12 (stereo partly specified) = True
Oc1ccc(/C=C\c2cc(O)cc(O)c2)cc1 = False

Moving on to another compound below.
Q: Given `CO[C@H]1/C=C/O[C@@]2(C)Oc3c(C)c(O)c4c(O)c(c(/C=N\N5CCN(C6CCCC6)CC5)c(O)c4c3C2=O)NC(=O)/C(C)=C\C=C\[C@H](C)[C@H](O)[C@@H](C)[C@@H](O)[C@@H](C)[C@H](OC(C)=O)[C@@H]1C` , state the outcome it received in this test.
A: True

###

# Test target: Cytochrome P450 2D6 (Homo sapiens)
# Assay overview: qHTS Assay for Inhibitors and Substrates of Cytochrome P450 2D6 (AID 891); note: nearly all actives have a fitted effect of over 60% in size
# Measurement conditions: recombinant CYP2D6, luciferin-ME EGE luminescence; series mostly up to 57.1 µM
Inconclusive results are not listed. The source made the active and inactive calls. Calls come from the whole dose curve; as a rule, active = well fitted inhibition curve with a large enough effect; inconclusive = small, poorly fitted or top-dose-only effect; inactive = no such curve, though single readings can be large or run the other way.
Entry note: the call must match one of active, inactive

CC(C)NC(=O)N1CCCC2(CCN(C(=O)c3cccc(F)c3)CC2)C1 = inactive

Q: Given `CNc1nc(-c2ccccc2CN(C)C)nc2ccccc12` , state the outcome it received in this test.
A: active

###

# Assay overview: Primary qHTS for inhibitors of nuclear receptor binding SET domain protein 2 (NSD2) in an RCH-ACV wild type WT cells (2C) (AID 1645877); note: nearly all actives have a fitted effect of over 70% in size; note: potency is the fitted concentration of half-maximal effect
# Measurement conditions: RCH-ACV (leukaemia line) NSD2 WT (2C) viability, CellTiter-Glo, 72 h; series mostly up to 44.9 µM
Inconclusive results are not listed. Calls of active or inactive are those of the source. Calls follow the shape of the dose curve; as a rule, active = well fitted inhibition curve with a large enough effect; inconclusive = small, poorly fitted or top-dose-only effect; inactive = no such curve, though single readings can be large or run the other way.
Quantity measured: Potency

Examples with answers:
C=CCNc1c(O)cc2c(O)c1C[C@@H](C)C[C@H](OC)[C@H](O)[C@@H](C)/C=C(/C)[C@H](OC(N)=O)[C@@H](OC)/C=C\C=C(\C)C(=O)N2 = 1050 nM (active)
NC(=O)/C(=C/n1cnc(-c2cc(C(F)(F)F)cc(C(F)(F)F)c2)n1)c1cncnc1 = 235 nM (active)
CN(CCOc1ccc(-c2ccc3c(c2)OCO3)cc1C(C)(C)C)CC(=O)O = 20900 nM (active)
CN(CCOc1ccc(C[C@H](Nc2ccccc2C(=O)c2ccccc2)C(=O)O)cc1)c1ccccn1 = inactive
COC1CC(C(=O)c2ccc3c(N)ncc(-c4ccc(-c5cnn(C)c5)cc4)c3n2)C1 (stereo not drawn) = 41.7 nM (active)
CNC(=O)Cn1cc(-c2ccc3c(c2)C(F)CC32NC(=O)N(CC(=O)N(Cc3ccc(F)cc3)[C@@H](C)C(F)(F)F)C2=O)cn1 (stereo partly drawn) = 66.1 nM (active)
C=C1CCC[C@]2(C)C=C3OC(=O)C(C)=C3C[C@@H]12 = inactive

Okay, next one:
Q: Please report the recorded Potency for `Cc1onc(-c2ccc(F)cc2)c1COc1ccc(C(=O)N2CCS(=O)(=O)CC2)cn1` .
A: inactive

###

# Test target: Dual specificity protein kinase CLK4 (Homo sapiens) (UniProt Q9HAZ1)
# Sequence (Q9HAZ1 whole entry, looked up): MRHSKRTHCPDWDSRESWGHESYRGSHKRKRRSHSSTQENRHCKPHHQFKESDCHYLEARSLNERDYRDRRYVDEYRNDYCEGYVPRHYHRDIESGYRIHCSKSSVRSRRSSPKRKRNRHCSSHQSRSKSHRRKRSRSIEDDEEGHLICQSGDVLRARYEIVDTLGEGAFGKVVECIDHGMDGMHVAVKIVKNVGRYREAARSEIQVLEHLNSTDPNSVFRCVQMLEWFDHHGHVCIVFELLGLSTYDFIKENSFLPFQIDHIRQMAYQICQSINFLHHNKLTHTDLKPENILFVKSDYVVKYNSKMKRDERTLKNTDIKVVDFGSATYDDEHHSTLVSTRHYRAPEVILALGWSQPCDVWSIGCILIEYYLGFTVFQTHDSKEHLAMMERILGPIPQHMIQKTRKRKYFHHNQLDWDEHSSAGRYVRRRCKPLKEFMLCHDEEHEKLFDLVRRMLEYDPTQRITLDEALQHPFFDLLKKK
# Assay overview: qHTS Assay for Inhibitors of CDC-like Kinase 4 (ADP-FP Assay) (AID 1795); note: nearly all actives have a fitted effect of over 60% in size
# Measurement conditions: Transcreener ADP fluorescence polarization; series mostly up to 50 µM
Results filed as inconclusive are left out. Calls of active or inactive are those of the source. The call rests on the fitted dose curve; in most records, active means well fitted inhibition curve with a large enough effect; inconclusive means small, poorly fitted or top-dose-only effect; inactive means flat fitted curve, though single readings scatter.
Entry note: the call must match one of TRUE = active, FALSE = inactive

For orientation, consider the following solved cases.
CN(Cc1ccco1)c1ncncc1-c1cccc(C#N)c1 = FALSE
FC(F)(F)c1ccccc1-c1nccc(NCc2cccs2)n1 = FALSE
O=c1c(-c2cccs2)nc2cncnc2n1Cc1ccccc1 = FALSE
O=c1c(-c2ccc(Cl)cc2)nc2cnc(N3CCOCC3)nc2n1-c1ccccc1 = FALSE
COc1ncc2nc(C)c(=O)n(C3CC3)c2n1 = FALSE

Q: Given `CNc1ncnc2ccc(-c3ccccc3C)cc12` , state the outcome it received in this test.
A: TRUE

Q: Similarly, `c1cncc(-c2cncnc2NC2CCNCC2)c1` ?
A: FALSE

Q: Similarly, `COc1cccc(Nc2ncc3nc(C)c(=O)n(C)c3n2)c1` ?
A: FALSE

Q: Similarly, `Cc1cnc(CNc2ncnc3ccc(-c4c(C)noc4C)cc23)cn1` ?
A: TRUE

Q: Similarly, `COc1ncc2nc(-c3ccc(F)cc3)c(=O)n(-c3ccccc3)c2n1` ?
A: FALSE

###

# Test target: Cytochrome P450 2C9 (Homo sapiens) (UniProt P11712)
# Sequence (P11712 whole entry, looked up): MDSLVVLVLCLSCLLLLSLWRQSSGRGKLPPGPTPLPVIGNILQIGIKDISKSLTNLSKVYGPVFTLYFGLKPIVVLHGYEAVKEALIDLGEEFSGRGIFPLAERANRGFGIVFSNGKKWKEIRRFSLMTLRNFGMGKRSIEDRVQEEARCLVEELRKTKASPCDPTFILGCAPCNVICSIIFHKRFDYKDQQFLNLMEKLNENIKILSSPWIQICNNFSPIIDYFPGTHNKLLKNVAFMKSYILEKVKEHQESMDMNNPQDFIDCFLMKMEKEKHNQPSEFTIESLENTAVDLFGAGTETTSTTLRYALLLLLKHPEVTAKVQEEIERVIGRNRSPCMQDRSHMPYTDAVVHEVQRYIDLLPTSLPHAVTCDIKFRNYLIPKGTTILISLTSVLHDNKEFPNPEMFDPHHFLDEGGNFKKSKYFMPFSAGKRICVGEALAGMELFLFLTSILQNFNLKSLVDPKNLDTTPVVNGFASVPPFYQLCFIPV
# Assay overview: qHTS Assay for Inhibitors and Substrates of Cytochrome P450 2C9 (AID 883); note: nearly all actives have a fitted effect of over 60% in size
# Measurement conditions: recombinant CYP2C9, luciferin-H luminescence, 60 min; series mostly up to 57.1 µM
Inconclusive results are not listed. Calls of active or inactive are those of the source. Calls follow the shape of the dose curve; as a rule, active = well fitted inhibition curve with a large enough effect; inconclusive = small, poorly fitted or top-dose-only effect; inactive = no such curve, though single readings can be large or run the other way.
Entry note: the call must match one of active, inactive

O=C(c1cc(C(F)(F)F)cc(C(F)(F)F)c1)N1CCC[C@@]2(CCN(Cc3ccncc3)C2)C1 = active

Q: Given `CN(C)c1ncc2nc(-c3cccc(C#N)c3)c(=O)n(CCC#N)c2n1` , state the outcome it received in this test.
A: inactive

Q: Similarly, `O=c1c(-c2cc(F)cc(F)c2)nc2cnc(N3CCNCC3)nc2n1Cc1cccs1` ?
A: active

Q: Similarly, `CC(=O)N1CCC2(CC1)CN(c1ccncc1)C2` ?
A: inactive

Q: Similarly, `O=c1cnc2cnc(Oc3cccc(Cl)c3)nc2n1Cc1ccc(F)cc1` ?
A: active

Q: Similarly, `CN(C)c1ncc2nc(-c3ccc(F)cc3)c(=O)n(Cc3ccc(F)cc3)c2n1` ?
A: inactive

###

# Assay overview: Inflammasome Signaling qHTS Counterscreen: IL-1-beta AlphaLISA counterscreen against the NCATS CANVASS Library (AID 1347381);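 note: cell-free check with purified IL-1β in medium and no THP-1 cells; 0% is about no effect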
# Measurement conditions: Purified IL-1beta AlphaLISA signal interference counterscreen; series mostly up to 57.5 µM
Activity calls are given as the source filed them. Calls follow the shape of the dose curve; as a rule, active = well fitted curve in the direction sought with a large enough effect; inconclusive = small, poorly fitted or top-dose-only effect, or another doubt; inactive = no such curve, though single readings can be large or run the other way. Peptide text beside a SMILES is read from it. * marks the point of attachment. Hexanoyl = CCCCCC(=O)*
Quantity measured: activity change, negative = inhibition

CC(CCC[C@]1(C)C(=O)C=C[C@@]23C[C@]4(C)O[C@@H](C[C@@H]4[C@H]2O)C31)C(=O)O (stereo partly drawn) = inactive
COc1cc(C2OCC3C(c4ccc(O)c(OC)c4)OCC23)ccc1O (stereo not drawn) = -8.43% [at 11.5 µM] (inactive)
CC1=C2CC[C@]3(C)[C@H](CC=C4[C@@H]5CC(C)(C)CC[C@@H]5C(=O)[C@H](O)[C@]43C)[C@@]2(C)C=C(O)C1=O = inactive
COc1cc(/C=C/C(=O)OC[C@@H](Cc2ccc(O)c(OC)c2)[C@@H](COC(=O)/C=C/c2ccc(O)c(OC)c2)Cc2ccc(O)c(OC)c2)ccc1O = inactive
COc1ccc([C@@H]2c3cc4c(cc3C[C@H](C)C2C)OCO4)cc1OC (stereo partly drawn) = inactive

Here are 2 molecules. What values of activity change, negative = inhibition were reported for them?
1. C/C1=C/[C@@H](C)[C@H](O)[C@@H](O)/C=C/CC/C=C/C(=O)O[C@@H]1[C@H](C)C(=O)CCCC1CC(=O)NC(=O)C1
2. C=C(Cl)[C@](Cl)(CBr)CC[C@@H](Br)C(C)(C)Cl

A:
1. inactive
2. inactive

Here are 8 molecules. What values of activity change, negative = inhibition were reported for them?
1. CC(C)=CC[C@H]1C[C@@]2(CC=C(C)C)C(=O)[C@](CC=C(C)C)(C(=O)C(C(=O)c3ccccc3)=C2O)C1(C)C
2. C=C[C@](Cl)(CBr)CCC=C(C)C
3. COc1cc2ccc(=O)oc2c(O)c1O[C@@H]1O[C@H](CO)[C@@H](O)[C@H](O)[C@H]1O
4. CCCCCC(=O)N[C@@H](CC(C)C)C(=O)N[C@H](C=O)CCC(=O)O (Hexanoyl-Leu-Glu-aldehyde)
5. C=C1CC[C@@H](Br)C(C)(C)[C@]12CC=C(C)C(=O)C2
6. COC(=O)C1=C[C@]23C[C@@H](C)CC[C@@H]2[C@@]2(C)CC[C@@H](C(C)C)[C@@](O)(O3)[C@@H]12
7. CC(=O)O[C@H]1c2ccccc2-c2c3c(cc4c2[C@@H]1N(C(C)=O)CC4)OCO3
8. COc1ccc(-c2oc3cc(OC)cc(OC)c3c(=O)c2O)cc1

A:
1: inactive; 2: inactive; 3: inactive; 4: inactive; 5: inactive; 6: inactive; 7: inactive; 8: inactive

Here are 3 molecules. What values of activity change, negative = inhibition were reported for them?
1. COC(=O)c1cccc2oc(-c3cccc4oc(-c5c(C)cccc5O)nc34)nc12
2. CCC(=O)N[C@@H](C[C@H](C)C(Cl)(Cl)Cl)C(=O)N1C(=O)C=C(OC)[C@@H]1CC(C)C
3. C/C=C(/C)c1cc(O)c(C)c2c1Oc1cc(O)cc(C)c1C(=O)O2

A:
inactive
inactive
inactive

Recorded values, source PubChem BioAssay (NCATS).
